- target of assay: Ephrin type-A receptor 2 (Homo sapiens)
- Sequence (P29317 whole entry, the tested form may be a part): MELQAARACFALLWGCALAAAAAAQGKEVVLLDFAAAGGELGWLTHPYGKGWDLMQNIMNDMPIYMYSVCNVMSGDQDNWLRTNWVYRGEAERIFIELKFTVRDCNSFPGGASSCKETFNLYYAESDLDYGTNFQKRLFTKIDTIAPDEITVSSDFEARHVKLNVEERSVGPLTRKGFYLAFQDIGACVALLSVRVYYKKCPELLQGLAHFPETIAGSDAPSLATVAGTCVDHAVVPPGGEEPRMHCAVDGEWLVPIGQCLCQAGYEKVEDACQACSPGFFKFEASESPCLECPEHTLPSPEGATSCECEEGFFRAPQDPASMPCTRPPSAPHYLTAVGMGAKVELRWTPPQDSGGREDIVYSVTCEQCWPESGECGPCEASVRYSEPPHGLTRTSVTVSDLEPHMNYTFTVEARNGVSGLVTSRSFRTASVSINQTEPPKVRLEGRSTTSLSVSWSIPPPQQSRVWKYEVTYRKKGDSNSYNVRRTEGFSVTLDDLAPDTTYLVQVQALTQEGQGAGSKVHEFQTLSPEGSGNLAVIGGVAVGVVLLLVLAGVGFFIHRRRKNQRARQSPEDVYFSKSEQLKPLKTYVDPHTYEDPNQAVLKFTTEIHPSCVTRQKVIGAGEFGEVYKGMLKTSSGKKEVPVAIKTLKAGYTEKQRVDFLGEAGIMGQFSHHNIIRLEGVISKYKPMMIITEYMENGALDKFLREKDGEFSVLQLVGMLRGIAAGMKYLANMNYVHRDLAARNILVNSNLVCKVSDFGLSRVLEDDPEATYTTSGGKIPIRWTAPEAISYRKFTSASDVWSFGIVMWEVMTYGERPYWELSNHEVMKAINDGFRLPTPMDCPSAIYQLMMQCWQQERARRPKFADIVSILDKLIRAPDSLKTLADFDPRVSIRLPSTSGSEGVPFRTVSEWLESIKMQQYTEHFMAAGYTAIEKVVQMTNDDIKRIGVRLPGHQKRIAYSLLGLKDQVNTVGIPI
- assay method text: Inhibition of recombinant human N-terminal His6-tagged EphA2 (N598 to R890 residues) expressed in baculovirus using poly-EY as substrate after 180 mins by luciferase coupled chemiluminescence assay
experimental endpoint: IC50

COc1cc2c(Nc3ccc(Cl)c(Cl)c3Cl)ncnc2cc1OCC1CN(C)CCO1 (stereo not given) = < 50 nM
COc1cc2c(Nc3ccc(Br)c(Cl)c3)ncnc2cc1O[C@H]1CO[C@H]2[C@@H]1OC[C@@H]2N1CCOCC1 = 1000 to 20000 nM
COc1cc2c(Nc3ccc(Cl)c(Cl)c3)ncnc2cc1OCC1CN(CC2CC2)CCO1 (stereo not given) = < 50 nM
COc1cc2c(Nc3ccc(Cl)c(Cl)c3)ncnc2cc1OCc1csc(N2CCN(C)CC2)n1 = 50 to 1000 nM

Switching to the query record.
Input: What does the record list as IC50 for COc1cc2c(Nc3ccc(Cl)c(Cl)c3)ncnc2cc1OCC1CN(C(=O)CCC(C)C)CCO1 (stereo not given) ?
Output: 50 to 1000 nM

----------
Parameter pIC50: see the listing below.
- target of assay: Vascular endothelial growth factor receptor 1 (Homo sapiens, UniProt P17948)
- Sequence (P17948 whole entry, the tested form may be a part): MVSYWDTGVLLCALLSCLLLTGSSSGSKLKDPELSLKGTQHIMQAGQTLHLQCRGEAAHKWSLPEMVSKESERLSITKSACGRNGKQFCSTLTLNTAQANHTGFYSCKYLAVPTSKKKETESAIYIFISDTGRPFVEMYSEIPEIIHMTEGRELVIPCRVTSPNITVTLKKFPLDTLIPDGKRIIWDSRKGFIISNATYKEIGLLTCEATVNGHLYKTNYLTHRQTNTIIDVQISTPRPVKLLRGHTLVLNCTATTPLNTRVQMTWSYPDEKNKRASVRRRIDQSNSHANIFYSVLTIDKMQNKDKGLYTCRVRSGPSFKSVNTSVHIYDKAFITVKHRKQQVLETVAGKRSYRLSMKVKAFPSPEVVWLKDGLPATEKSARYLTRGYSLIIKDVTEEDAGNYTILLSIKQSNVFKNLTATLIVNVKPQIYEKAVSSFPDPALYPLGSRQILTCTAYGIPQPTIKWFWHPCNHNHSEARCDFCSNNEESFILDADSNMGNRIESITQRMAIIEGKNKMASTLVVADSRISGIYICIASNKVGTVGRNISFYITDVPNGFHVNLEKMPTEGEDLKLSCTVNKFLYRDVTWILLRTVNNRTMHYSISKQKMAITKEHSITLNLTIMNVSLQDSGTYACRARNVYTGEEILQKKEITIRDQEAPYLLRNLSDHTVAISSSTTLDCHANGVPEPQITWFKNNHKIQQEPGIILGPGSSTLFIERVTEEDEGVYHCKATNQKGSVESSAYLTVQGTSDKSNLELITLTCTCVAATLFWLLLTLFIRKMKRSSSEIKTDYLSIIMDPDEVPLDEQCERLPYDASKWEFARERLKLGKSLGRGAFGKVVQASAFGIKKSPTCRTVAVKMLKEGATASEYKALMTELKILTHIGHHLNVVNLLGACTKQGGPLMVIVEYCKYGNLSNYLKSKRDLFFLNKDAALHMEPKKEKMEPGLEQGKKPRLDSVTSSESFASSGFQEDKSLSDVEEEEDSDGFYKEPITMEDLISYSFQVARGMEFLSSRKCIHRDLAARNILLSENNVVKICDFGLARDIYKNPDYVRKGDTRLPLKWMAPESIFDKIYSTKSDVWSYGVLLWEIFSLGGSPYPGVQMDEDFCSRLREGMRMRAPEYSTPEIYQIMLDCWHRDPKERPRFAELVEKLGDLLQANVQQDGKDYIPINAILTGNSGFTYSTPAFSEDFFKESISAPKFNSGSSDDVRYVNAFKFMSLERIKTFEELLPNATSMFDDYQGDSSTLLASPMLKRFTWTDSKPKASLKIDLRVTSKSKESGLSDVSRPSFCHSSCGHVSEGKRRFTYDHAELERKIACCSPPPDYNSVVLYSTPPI
- assay method text: Inhibition of recombinant human N-terminal GST-tagged factor 10a cleavage site-fused Flt1 (K784 to I1338 residues) expressed in baculovirus infected insect Sf9 cells using poly-EY as substrate after 120 mins in presence of gamma33P-ATP by liquid scintillation spectrometry
pIC50: −log10 of the molar value.

Consider the following illustrative entries.
COc1cc2c(Nc3ccc(Cl)c(Cl)c3F)ncnc2cc1OC[C@@H]1CN2CCC[C@H]2C(=O)N1C = 6.00 to 7.30
COc1cc2c(Nc3ccc(Cl)c(Cl)c3)ncnc2cc1OC1C[C@@H]2CN(C)C[C@@H]2C1 (stereo partly drawn) = 4.70 to 6.00
COc1cc2c(Nc3ccc(Cl)c(Cl)c3F)ncnc2cc1OC[C@@H]1CN2CCC[C@H]2C(=O)N1 = 6.00 to 7.30
COc1cc2c(Nc3ccc(Cl)c(Cl)c3F)ncnc2cc1OC[C@@H]1CN2CCC[C@H]2CO1 = 6.00 to 7.30
COc1cc2c(Nc3ccc(Cl)c(Cl)c3)ncnc2cc1OCC1CN2CCOCC2CO1 (stereo not drawn) = 6.00 to 7.30

Field: next compound
Input: Lookup: pIC50 / Vascular endothelial growth factor receptor 1 (Homo sapiens, UniProt P17948) / COc1cc2c(Nc3ccc(F)c(Cl)c3F)ncnc2cc1OC[C@H]1CN2CCOC[C@H]2CO1
Output: 6.00 to 7.30

----------
- target of assay: Vascular endothelial growth factor receptor 2 (Homo sapiens)
- Sequence (P35968 whole entry, the tested form may be a part): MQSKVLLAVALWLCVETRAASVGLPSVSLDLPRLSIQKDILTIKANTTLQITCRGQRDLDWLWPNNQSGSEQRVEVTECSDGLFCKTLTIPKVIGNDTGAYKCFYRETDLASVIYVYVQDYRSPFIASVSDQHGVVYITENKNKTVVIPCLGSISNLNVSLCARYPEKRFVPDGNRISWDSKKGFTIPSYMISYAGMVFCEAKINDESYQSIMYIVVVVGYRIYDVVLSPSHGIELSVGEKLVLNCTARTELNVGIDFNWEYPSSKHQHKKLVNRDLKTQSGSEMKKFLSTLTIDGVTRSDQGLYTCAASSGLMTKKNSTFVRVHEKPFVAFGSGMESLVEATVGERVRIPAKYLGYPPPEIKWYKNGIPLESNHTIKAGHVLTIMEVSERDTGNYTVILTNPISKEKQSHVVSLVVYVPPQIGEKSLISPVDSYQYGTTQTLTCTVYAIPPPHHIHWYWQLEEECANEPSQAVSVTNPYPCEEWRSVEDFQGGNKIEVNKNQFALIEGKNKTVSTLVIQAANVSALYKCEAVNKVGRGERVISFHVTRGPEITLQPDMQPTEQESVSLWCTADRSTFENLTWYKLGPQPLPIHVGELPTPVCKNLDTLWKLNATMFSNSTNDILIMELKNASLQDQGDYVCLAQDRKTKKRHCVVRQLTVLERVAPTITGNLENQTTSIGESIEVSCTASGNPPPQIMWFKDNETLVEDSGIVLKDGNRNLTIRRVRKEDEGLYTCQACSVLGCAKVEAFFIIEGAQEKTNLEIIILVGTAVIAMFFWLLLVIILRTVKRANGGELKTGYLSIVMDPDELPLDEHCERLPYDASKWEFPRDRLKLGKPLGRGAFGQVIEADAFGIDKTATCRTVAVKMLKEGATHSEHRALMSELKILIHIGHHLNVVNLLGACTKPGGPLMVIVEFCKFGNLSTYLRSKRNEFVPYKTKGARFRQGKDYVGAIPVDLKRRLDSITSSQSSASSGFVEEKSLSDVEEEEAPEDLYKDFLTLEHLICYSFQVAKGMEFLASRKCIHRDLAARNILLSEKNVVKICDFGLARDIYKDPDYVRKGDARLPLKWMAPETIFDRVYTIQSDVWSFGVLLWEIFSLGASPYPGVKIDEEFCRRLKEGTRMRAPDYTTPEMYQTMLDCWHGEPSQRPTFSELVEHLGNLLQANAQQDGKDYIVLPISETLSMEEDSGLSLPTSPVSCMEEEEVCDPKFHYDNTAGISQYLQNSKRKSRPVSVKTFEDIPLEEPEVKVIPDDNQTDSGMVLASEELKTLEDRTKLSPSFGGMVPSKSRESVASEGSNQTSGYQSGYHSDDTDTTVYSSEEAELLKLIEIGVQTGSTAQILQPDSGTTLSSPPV
- assay method text: Inhibition of recombinant human N-terminal GST-fused KDR (D807 to V1356 residues) expressed in baculovirus infected […] insect Sf9 cells using poly-EY as substrate after 240 mins by luciferase coupled chemiluminescence assay
Reported IC50 values for a set of compounds

CCN1CCN(C(C)=O)CC1COc1cc2ncnc(Nc3ccc(Cl)c(Cl)c3)c2cc1OC (centres undefined) = 1 to 20 µM
COc1cc2c(Nc3ccc(F)c(Cl)c3F)ncnc2cc1OCC1CN(C)C(C)(C)CO1 (centres undefined) = 0.05 to 1 µM
CCN1CCc2nc(COc3cc4ncnc(Nc5ccc(Cl)c(Cl)c5)c4cc3OC)sc2C1 = 0.05 to 1 µM
CCCC(C)C(=O)N1CCOC(COc2cc3ncnc(Nc4ccc(Cl)c(Cl)c4)c3cc2OC)C1 (centres undefined) = 0.05 to 1 µM
COc1cc2c(Nc3cccc(Cl)c3F)ncnc2cc1OCC1CN(C)CCO1 (centres undefined) = 0.05 to 1 µM
COc1cc2c(Nc3ccc(Cl)c(Cl)c3)ncnc2cc1OCC1CN(CCCCF)CCO1 (centres undefined) = < 0.05 µM
COc1cc2c(Nc3ccc(Cl)c(Cl)c3)ncnc2cc1OCC1CN(CCC(C)C)CCCO1 (centres undefined) = 0.05 to 1 µM
COc1cc2c(Nc3ccc(Br)c(Cl)c3)ncnc2cc1O[C@@H]1CO[C@H]2[C@@H]1OC[C@@H]2OS(C)(=O)=O = 1 to 20 µM
COc1cc2c(Nc3ccc(Cl)c(Cl)c3)ncnc2cc1OCC1CN(Cc2ccc(F)cc2)CCO1 (centres undefined) = 0.05 to 1 µM
CCCCN1CCOC(COc2cc3ncnc(Nc4ccc(Cl)c(Cl)c4)c3cc2OC)C1 (centres undefined) = < 0.05 µM

From here, focus on the item given below.
Input: Any idea what IC50 was measured for COc1cc2c(Nc3ccc(Cl)c(Cl)c3F)ncnc2cc1OCC1CN(C)CCO1 (centres undefined) ?
Output: < 0.05 µM

----------
- target of assay: Receptor tyrosine-protein kinase erbB-2 (Homo sapiens, UniProt P04626)
- Sequence (P04626 whole entry, the tested form may be a part): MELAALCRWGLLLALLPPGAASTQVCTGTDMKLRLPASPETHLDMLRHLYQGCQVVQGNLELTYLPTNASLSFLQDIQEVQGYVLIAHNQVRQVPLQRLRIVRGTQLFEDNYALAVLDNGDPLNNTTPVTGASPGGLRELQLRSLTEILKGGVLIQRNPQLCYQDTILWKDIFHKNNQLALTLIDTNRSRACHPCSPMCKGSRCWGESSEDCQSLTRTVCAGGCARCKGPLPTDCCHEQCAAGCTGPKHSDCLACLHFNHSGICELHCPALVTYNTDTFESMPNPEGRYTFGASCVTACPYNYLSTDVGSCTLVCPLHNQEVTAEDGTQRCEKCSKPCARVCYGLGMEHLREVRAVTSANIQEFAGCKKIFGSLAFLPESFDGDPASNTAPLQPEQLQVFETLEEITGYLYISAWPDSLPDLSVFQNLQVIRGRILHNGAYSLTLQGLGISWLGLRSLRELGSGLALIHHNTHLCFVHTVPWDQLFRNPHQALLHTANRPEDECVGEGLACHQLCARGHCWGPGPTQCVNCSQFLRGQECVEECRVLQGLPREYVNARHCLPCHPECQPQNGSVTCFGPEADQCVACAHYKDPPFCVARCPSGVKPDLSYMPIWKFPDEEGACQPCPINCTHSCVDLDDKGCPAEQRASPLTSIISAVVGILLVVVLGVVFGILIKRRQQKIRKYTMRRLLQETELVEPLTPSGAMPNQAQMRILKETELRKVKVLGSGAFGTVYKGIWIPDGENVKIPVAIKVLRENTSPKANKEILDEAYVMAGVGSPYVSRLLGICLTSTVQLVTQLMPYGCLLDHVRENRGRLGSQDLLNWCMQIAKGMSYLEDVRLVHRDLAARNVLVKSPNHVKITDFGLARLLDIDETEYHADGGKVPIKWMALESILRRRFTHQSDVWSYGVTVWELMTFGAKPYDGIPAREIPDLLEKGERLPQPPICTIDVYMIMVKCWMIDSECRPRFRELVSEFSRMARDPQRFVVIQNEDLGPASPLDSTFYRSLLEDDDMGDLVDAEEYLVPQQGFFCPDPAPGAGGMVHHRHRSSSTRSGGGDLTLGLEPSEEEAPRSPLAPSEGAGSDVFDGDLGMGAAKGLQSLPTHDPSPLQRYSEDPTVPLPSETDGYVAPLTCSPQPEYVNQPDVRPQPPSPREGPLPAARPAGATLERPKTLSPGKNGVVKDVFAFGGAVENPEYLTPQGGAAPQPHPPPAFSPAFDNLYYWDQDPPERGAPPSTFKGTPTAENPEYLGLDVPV
- assay method text: Inhibition of recombinant human N-terminal GST His6-tagged thrombin cleavage site-fused ErbB2 kinase domain (Q679 to V1255 residues) expressed in baculovirus infected insect Sf9 cells using biotinylated poly-EY as substrate after 60 mins by alphascreen assay
# IC50 per entry

Example results:
COc1cc2c(Nc3ccc(Cl)c(Cl)c3C)ncnc2cc1OCC1CN(C)CCO1 (stereo not given) = 1 to 20 µM
COc1cc2c(Nc3cc(F)c(Br)cc3F)ncnc2cc1OCC1CN(C)CCO1 (stereo not given) = 0.05 to 1 µM
COc1cc2c(Nc3ccc(Cl)c(Cl)c3)ncnc2cc1OC[C@@H]1CN2CCC[C@H]2CO1 = 0.05 to 1 µM
COc1cc2c(Nc3ccc(Br)c(Cl)c3)ncnc2cc1O[C@@H]1CO[C@H]2[C@@H]1OC[C@@H]2O = 0.05 to 1 µM

Continue with the compound presented below.
Input: Name the reported IC50 value associated with the compound COc1cc2c(Nc3ccc(Cl)c(Cl)c3)ncnc2cc1OCc1nc2c(s1)CN(C)CC2
Output: < 0.05 µM

----------
- target of assay: Ephrin type-B receptor 4 (Homo sapiens)
- Sequence (P54760 whole entry): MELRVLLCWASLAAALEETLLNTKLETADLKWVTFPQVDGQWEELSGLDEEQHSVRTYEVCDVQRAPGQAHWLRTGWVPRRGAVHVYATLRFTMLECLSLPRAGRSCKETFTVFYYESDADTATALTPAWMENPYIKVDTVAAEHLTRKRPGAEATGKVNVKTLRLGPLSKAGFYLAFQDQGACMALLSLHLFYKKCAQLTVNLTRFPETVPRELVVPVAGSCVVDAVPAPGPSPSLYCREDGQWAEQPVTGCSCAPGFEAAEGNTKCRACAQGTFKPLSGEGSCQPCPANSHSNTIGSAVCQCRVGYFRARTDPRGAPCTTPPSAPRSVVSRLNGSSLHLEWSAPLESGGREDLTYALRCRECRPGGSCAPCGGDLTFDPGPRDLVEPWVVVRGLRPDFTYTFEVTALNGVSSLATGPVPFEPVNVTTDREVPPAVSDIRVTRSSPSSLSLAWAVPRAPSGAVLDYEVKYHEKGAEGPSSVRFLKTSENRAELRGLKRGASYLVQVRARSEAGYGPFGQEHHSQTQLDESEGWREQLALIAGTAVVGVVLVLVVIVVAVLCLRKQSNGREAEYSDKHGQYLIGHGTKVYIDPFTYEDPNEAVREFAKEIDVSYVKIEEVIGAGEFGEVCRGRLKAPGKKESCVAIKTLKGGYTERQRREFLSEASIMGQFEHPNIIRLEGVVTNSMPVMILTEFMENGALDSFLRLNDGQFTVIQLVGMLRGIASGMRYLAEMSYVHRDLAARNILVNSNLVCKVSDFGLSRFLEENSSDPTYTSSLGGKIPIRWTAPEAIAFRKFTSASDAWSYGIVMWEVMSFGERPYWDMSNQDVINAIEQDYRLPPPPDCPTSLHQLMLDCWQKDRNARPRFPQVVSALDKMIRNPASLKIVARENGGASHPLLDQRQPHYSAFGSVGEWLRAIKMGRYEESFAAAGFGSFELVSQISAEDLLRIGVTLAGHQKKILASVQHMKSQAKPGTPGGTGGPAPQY
- assay method text: Inhibition of recombinant human N-terminal His6-tagged EphB4 kinase domain (E605 to E890 residues) expressed in baculovirus using poly-AEKY as substrate after 150 mins in presence of gamma33P-ATP by liquid scintillation spectrometry
experimental endpoint: IC50

Use these answered entries as a reference point.
COc1cc2c(Nc3ccc(Br)cc3C)ncnc2cc1OCC1CN(C)CCO1 (stereo unspecified) = 50 to 1000 nM
COc1cc2c(Nc3ccc(Cl)c(Cl)c3)ncnc2cc1OC1C[C@@H]2CN(C)C[C@@H]2C1 (stereo partly specified) = 50 to 1000 nM
CC#CCN1CCOC(COc2cc3ncnc(Nc4ccc(Cl)c(Cl)c4)c3cc2OC)C1 (stereo unspecified) = 50 to 1000 nM
COc1cc2c(Nc3ccc(Br)c(Cl)c3)ncnc2cc1O[C@H]1CO[C@H]2[C@@H]1OC[C@@H]2O = 50 to 1000 nM

Input: What does the data say about its IC50? Entry: CCN1CCN(CC)C(COc2cc3ncnc(Nc4ccc(Cl)c(Cl)c4)c3cc2OC)C1 (stereo unspecified)
Output: 50 to 1000 nM

Input: Now try CC[C@@H](C)CN1CCOC(COc2cc3ncnc(Nc4ccc(Cl)c(Cl)c4)c3cc2OC)C1 (stereo partly specified) .
Output: 50 to 1000 nM

Input: And for COc1cc2c(Nc3ccc(Cl)c(Cl)c3)ncnc2cc1OCC1CN(CC2CCCCC2)CCO1 (stereo unspecified) ?
Output: 50 to 1000 nM

Input: What about this molecule? CN1CCOC(COc2cc3ncnc(Nc4ccc(Cl)c(Cl)c4)c3cc2O)C1 (stereo unspecified)
Output: 50 to 1000 nM

Input: Now the same for COc1cc2c(Nc3ccc(Br)cc3F)ncnc2cc1OCC1CCN(C(N)=NC#N)CC1
Output: 50 to 1000 nM

Input: Also check COc1cc2c(Nc3ccc(Br)c(Cl)c3F)ncnc2cc1OC[C@@H]1CN2CCC[C@H]2C(=O)N1
Output: < 50 nM

Input: Could you do the same for COc1cc2c(Nc3ccc(Cl)c(Cl)c3)ncnc2cc1OCC1CN(C(=O)CCC(C)C)CCO1 (stereo unspecified) , please?
Output: 50 to 1000 nM

Input: Next up: COc1cc2c(Nc3ccc(Cl)c(Cl)c3)ncnc2cc1OCC1CN(CC2CCCCO2)CCO1 (stereo unspecified)
Output: < 50 nM

Input: What about this molecule? COC(=O)CCC(=O)N1CCOC(COc2cc3ncnc(Nc4ccc(Cl)c(Cl)c4)c3cc2OC)C1 (stereo unspecified)
Output: 50 to 1000 nM

Input: One more molecule: COc1cc2c(Nc3ccc(Cl)c(Cl)c3)ncnc2cc1OCC1CN(C)CC(C)(C)O1 (stereo unspecified)
Output: 50 to 1000 nM

Input: Consider next the molecule COc1cc2c(Nc3ccc(Cl)c(Cl)c3)ncnc2cc1OCC1CN(CC2CC2)CCO1 (stereo unspecified) in the same way.
Output: < 50 nM

FYI, the data here is from ChEMBL document CHEMBL3882729.
